Each recorded value in this set is attributed to ChEMBL document CHEMBL3763058.

System: Human immunodeficiency virus 1
measurementDescription: Binding affinity to HIV1 5'-[32P]ON21 RNA assessed as viral RNA cleavage at 1 mM measured after 3 and 7 hrs relative to control
Rule: Activity under 8% gives No, otherwise Yes.

Please review the entries below; each comes with its answer.
[
  {
    "chemSmiles": "N[C@@H](CO)C(=O)NCCCCCCCCCCCCNC(=O)[C@@H](N)CO",
    "group": "Yes"
  },
  {
    "chemSmiles": "N[C@@H](CO)C(=O)NCCCOCCCCOCCCNC(=O)[C@@H](N)CO",
    "group": "No"
  },
  {
    "chemSmiles": "NCCCC[C@H](NC(=O)CCCCCNC(=O)[C@@H](N)CCC(=O)O)C(=O)NCCCOCCCCOCCCNC(=O)[C@H](CCCCN)NC(=O)CCCCCNC(=O)[C@@H](N)CCC(=O)O",
    "group": "Yes"
  },
  {
    "chemSmiles": "N[C@@H](CCC(=O)OCc1ccccc1)C(=O)NCCCCCCCCCCCCNC(=O)[C@@H](N)CCC(=O)OCc1ccccc1",
    "group": "Yes"
  },
  {
    "chemSmiles": "N[C@@H](CCC(=O)O)C(=O)NCCCCCCCCCCCCNC(=O)[C@@H](N)CCC(=O)O",
    "group": "Yes"
  }
]

Input: Test whether the compound NCCCC[C@H](NCCCCCNC(=O)[C@@H](N)CCC(=O)O)C(=O)NCCCCCCCCCCCCNC(=O)[C@H](CCCCN)NC(=O)CCCCCNC(=O)[C@@H](N)CCC(=O)O records Activity of 8% or higher.
Output: Yes

====

# Lookup of reported TIME keyed by entry
System: Human immunodeficiency virus 1
measurementDescription: Binding affinity to HIV1 5'-[32P]HIV96 RNA assessed as time of half viral RNA cleavage of at 1 mM
# number only, unit h dropped from output

Please review the entries below; each comes with its answer.
[
  {
    "chemSmiles": "N=C(N)NCCC[C@H](N)C(=O)NCCCOCCCCOCCCNC(=O)[C@@H](N)CCCNC(=N)N",
    "experimentalTarget": "Human immunodeficiency virus 1",
    "TIME, h": 10
  },
  {
    "chemSmiles": "N[C@@H](CCC(=O)OCc1ccccc1)C(=O)NCCCCCCCCCCCCNC(=O)[C@@H](N)CCC(=O)OCc1ccccc1",
    "experimentalTarget": "Human immunodeficiency virus 1",
    "TIME, h": 9
  },
  {
    "chemSmiles": "NCCCC[C@H](NCCCCCNC(=O)[C@@H](N)CCC(=O)O)C(=O)NCCCCCCCCCCCCNC(=O)[C@H](CCCCN)NC(=O)CCCCCNC(=O)[C@@H](N)CCC(=O)O",
    "experimentalTarget": "Human immunodeficiency virus 1",
    "TIME, h": 3
  },
  {
    "chemSmiles": "NCCCC[C@H](N)C(=O)NCCCOCCCCOCCCNC(=O)[C@@H](N)CCCCN",
    "experimentalTarget": "Human immunodeficiency virus 1",
    "TIME, h": 20
  }
]

Given the molecule NCCCC[C@H](NC(=O)CCc1c[nH]cn1)C(=O)NCCCOCCCCOCCCNC(=O)[C@H](CCCCN)NC(=O)CCc1c[nH]cn1 and test system Human immunodeficiency virus 1, the measured TIME is 8

Given the molecule N[C@@H](CCC(=O)O)C(=O)NCCCCCCCCCCCCNC(=O)[C@@H](N)CCC(=O)O and test system Human immunodeficiency virus 1, the measured TIME is 2

Given the molecule N[C@@H](CO)C(=O)NCCCCCCCCCCCCNC(=O)[C@@H](N)CO and test system Human immunodeficiency virus 1, the measured TIME is 6

Given the molecule NCCCC[C@H](NC(=O)CCCCCNC(=O)[C@@H](N)CCC(=O)O)C(=O)NCCCOCCCCOCCCNC(=O)[C@H](CCCCN)NC(=O)CCCCCNC(=O)[C@@H](N)CCC(=O)O and test system Human immunodeficiency virus 1, the measured TIME is 6

Given the molecule O=C(/C=C/c1c[nH]cn1)N[C@@H](CCCCNC(=O)OCc1ccccc1Cl)C(=O)NCCCOCCCCOCCCNC(=O)[C@H](CCCCNC(=O)OCc1ccccc1Cl)NC(=O)/C=C/c1c[nH]cn1 and test system Human immunodeficiency virus 1, the measured TIME is 7

Given the molecule N[C@@H](CCC(=O)O)C(=O)NCCCCCC(=O)N[C@@H](CO)C(=O)NCCCOCCCCOCCCNC(=O)[C@H](CO)NC(=O)CCCCCNC(=O)[C@@H](N)CCC(=O)O and test system Human immunodeficiency virus 1, the measured TIME is 17

Given the molecule NCCCC[C@H](N)C(=O)NCCCCCCCCCCCCNC(=O)[C@@H](N)CCCCN and test system Human immunodeficiency virus 1, the measured TIME is 7
